- SUBJECT_OF_TEST: Kras and SOS1 (biotin-tagged human Kras loaded with GDP, His-tagged human SOS1) (Homo sapiens, UniProt P01116, G12D)
- Construct: made in house; host or cells: E. coli (stated for Kras only)
- Sequence (P01116 1-188 isoform P01116-2 G12D): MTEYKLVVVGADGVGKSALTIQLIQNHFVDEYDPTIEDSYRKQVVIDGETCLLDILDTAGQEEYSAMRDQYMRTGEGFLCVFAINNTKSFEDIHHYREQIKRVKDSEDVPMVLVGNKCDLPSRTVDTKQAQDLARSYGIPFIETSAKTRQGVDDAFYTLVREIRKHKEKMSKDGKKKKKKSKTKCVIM
- ASSAY_PROCEDURE: Protein-protein interaction inhibition between Kras and SOS1 (KrasGl2D-SOS PPI) using AlphaScreen
- Format: binding
- REPORTED_CONDITIONS: AlphaScreen; biotin-tagged human Kras loaded with GDP, His-tagged human SOS1; read-out: KRAS G12D-SOS PPI IC50
Positions of bridges follow the written chain, without caps; N, C: chain ends. Non-standard residues stand in square brackets, D forms with d. Residues, ends and D or L forms follow the SMILES beside them. *: point of attachment. hPhe(3-Cl-4-CF3) = N[C@@H](CCc1ccc(C(F)(F)F)c(Cl)c1)C(=O)O; hPhe(4-CF3) = N[C@@H](CCc1ccc(C(F)(F)F)cc1)C(=O)O; Pro(cis-4-Ph) = O=C(O)[C@@H]1C[C@H](c2ccccc2)CN1; NMePhe(4-CN) = CN[C@@H](Cc1ccc(C#N)cc1)C(=O)O; NMePhe(4-Cl) = CN[C@@H](Cc1ccc(Cl)cc1)C(=O)O; NMeGly(cPent) = CN[C@H](C(=O)O)C1CCCC1; NMeCha = CN[C@@H](CC1CCCCC1)C(=O)O; NMeGly(cPr) = CN[C@H](C(=O)O)C1CC1; Azetidine(3,3-F2) = FC1(F)CN(*)C1; NMeChg = CN[C@H](C(=O)O)C1CCCCC1; NMeF = CN[C@@H](Cc1ccccc1)C(=O)O; NMeI = CC[C@H](C)[C@H](NC)C(=O)O; Piperidide(4-Me) = CC1CCN(*)CC1; NMeD = CN[C@@H](CC(=O)O)C(=O)O; CH2CONHtBu = CC(C)(C)NC(=O)C*; NMeL = CN[C@@H](CC(C)C)C(=O)O; NMeV = CN[C@H](C(=O)O)C(C)C; d(β3hA) = C[C@@H](N)CC(=O)O; NMeS = CN[C@@H](CO)C(=O)O; Pip = O=C(O)[C@@H]1CCCCN1; NMeA = CN[C@@H](C)C(=O)O; Piperidide = C1CCN(*)CC1; Ac5c = NC1(C(=O)O)CCCC1; Aze = O=C(O)[C@@H]1CCN1; Aib = CC(C)(N)C(=O)O; Isopentyl = CC(C)CC*; Sar = CNCC(=O)O
Label key: condition met means IC50 under 10 nM; condition not met means IC50 of 10 nM or more.

Illustrative cases are given below, each with its answer.
CC[C@H](C)[C@@H]1NC(=O)[C@H](CC(C)C)N(C)C(=O)C[C@@H](C(=O)N2CCCCC2)N(C)C(=O)[C@H](C2CCCCC2)N(C)C(=O)C2(CCCC2)NC(=O)[C@@H]2C[C@H](c3ccccc3)CN2C(=O)[C@H](CCc2ccc(C(F)(F)F)c(Cl)c2)NC(=O)CN(C)C(=O)[C@H](CC2CCCCC2)N(C)C(=O)[C@@H]2CCCN2C(=O)CN(C)C1=O [Compound 1096] ([NMeL]I[Sar]P[NMeCha][Sar][hPhe(3-Cl-4-CF3)][Pro(cis-4-Ph)][Ac5c][NMeChg][NMeD]-Piperidide; lactam N-11) = condition met
CC[C@H](C)[C@@H]1NC(=O)[C@H](C)N(C)C(=O)C[C@@H](C(=O)N2CCCCC2)NC(=O)[C@H](C(C)C)N(C)C(=O)[C@H](Cc2ccccc2)N(C)C(=O)[C@H](CC(C)C)N(C)C(=O)[C@H](CCc2ccc(C(F)(F)F)cc2)NC(=O)CN(C)C(=O)[C@H](Cc2ccc(Cl)cc2)N(C)C(=O)CN(C)C(=O)CN(C)C1=O [Compound 752] ([NMeA]I[Sar][Sar][NMePhe(4-Cl)][Sar][hPhe(4-CF3)][NMeL][NMeF][NMeV]D-Piperidide; lactam N-11) = condition not met
CC[C@H](C)[C@@H]1NC(=O)[C@H](CC(C)C)N(C)C(=O)C[C@@H](C(=O)N2CCCCC2)N(C)C(=O)[C@H](C(C)C)N(C)C(=O)C2(CCCC2)NC(=O)[C@@H]2CCCN2C(=O)[C@H](CCc2ccc(C(F)(F)F)c(Cl)c2)NC(=O)CN(C)C(=O)[C@H](Cc2ccc(C#N)cc2)N(C)C(=O)CN(C)C(=O)CN(C)C1=O [Compound 867] ([NMeL]I[Sar][Sar][NMePhe(4-CN)][Sar][hPhe(3-Cl-4-CF3)]P[Ac5c][NMeV][NMeD]-Piperidide; lactam N-11) = condition met
CC[C@H](C)[C@@H]1NC(=O)[C@H](CC(C)C)N(C)C(=O)C[C@@H](C(=O)N2CCC(C)CC2)NC(=O)[C@H]([C@@H](C)CC)N(C)C(=O)C2(CCCC2)NC(=O)[C@@H]2CCCN2C(=O)[C@H](CCc2ccc(C(F)(F)F)c(Cl)c2)NC(=O)CN(C)C(=O)[C@H](CC2CCCCC2)N(C)C(=O)CN(C)C(=O)CN(C)C1=O [Compound 1172] ([NMeL]I[Sar][Sar][NMeCha][Sar][hPhe(3-Cl-4-CF3)]P[Ac5c][NMeI]D-{Piperidide(4-Me)}; lactam N-11) = condition met
CC[C@H](C)[C@@H]1NC(=O)[C@H](CC(C)C)N(C)C(=O)C[C@@H](C(=O)N(C)C)N(C)C(=O)[C@H](C2CCCC2)N(C)C(=O)[C@H](COC)NC(=O)[C@H](CC(=O)N2CC(F)(F)C2)N(C)C(=O)[C@H](CCc2ccc(C(F)(F)F)c(Cl)c2)NC(=O)CN(C)C(=O)[C@H](CC2CCCCC2)N(C)C(=O)[C@@H]2CCN2C(=O)[C@H](C)N(C)C1=O [Compound 1108] ([NMeL]I[NMeA][Aze][NMeCha][Sar][hPhe(3-Cl-4-CF3)][NMeD](Azetidine(3,3-F2))S(Me)[NMeGly(cPent)][NMeD]-NMe2; lactam N-11) = condition not met
CC[C@H](C)[C@@H]1NC(=O)[C@H](C)N(C)C(=O)C[C@@H](C)NC(=O)[C@H](CC(C)C)N(C)C(=O)[C@H](Cc2ccccc2)N(C)C(=O)[C@@H]2CCCCN2C(=O)[C@H](CCc2ccc(C(F)(F)F)cc2)NC(=O)CN(C)C(=O)[C@H](Cc2ccc(Cl)cc2)N(C)C(=O)CN(C)C(=O)CN(C)C1=O [Compound 299] (cyclo(I[Sar][Sar][NMePhe(4-Cl)][Sar][hPhe(4-CF3)][Pip][NMeF][NMeL][d(β3hA)][NMeA])) = condition not met

*Q* Hi there! Is IC50 for CC[C@H](C)[C@@H]1NC(=O)[C@H](CC(C)C)N(C)C(=O)C[C@@H](C(=O)N2CCCCC2)N(C)C(=O)[C@H](CC(C)C)N(C)C(=O)C(C)(C)NC(=O)[C@H](COCC(=O)NC(C)(C)C)N(C)C(=O)[C@H](CCc2ccc(C(F)(F)F)c(Cl)c2)NC(=O)CN(C)C(=O)[C@H](COCCC(C)C)N(C)C(=O)CN(C)C(=O)CN(C)C1=O [Compound 1480] ([NMeL]I[Sar][Sar][NMeS](Isopentyl)[Sar][hPhe(3-Cl-4-CF3)][NMeS](CH2CONHtBu)[Aib][NMeL][NMeD]-Piperidide; lactam N-11) below 10 nM, do you know?
*A* condition met

*Q* Hi there! Is IC50 for CC[C@H](C)[C@@H]1NC(=O)[C@H](CC(C)C)N(C)C(=O)C[C@@H](C(=O)N2CCCCC2)N(C)C(=O)[C@H](C(C)C)N(C)C(=O)C2(CCCC2)NC(=O)[C@@H]2CCCN2C(=O)[C@H](CCc2ccc(C(F)(F)F)c(Cl)c2)NC(=O)CN(C)C(=O)[C@H](CC2CCCCC2)N(C)C(=O)[C@@H]2CCN2C(=O)[C@H](C2CC2)N(C)C1=O [Compound 1553] ([NMeL]I[NMeGly(cPr)][Aze][NMeCha][Sar][hPhe(3-Cl-4-CF3)]P[Ac5c][NMeV][NMeD]-Piperidide; lactam N-11) below 10 nM, do you know?
*A* condition not met

====

- SUBJECT_OF_TEST: Kras and SOS1 (biotin-tagged human Kras loaded with GDP, His-tagged human SOS1) (Homo sapiens, UniProt P01116, G12D)
- Construct: made in house; host or cells: E. coli (stated for Kras only)
- ASSAY_PROCEDURE: Protein-protein interaction inhibition between Kras and SOS1 (KrasGl2D-SOS PPI) using AlphaScreen
- Type: binding
- REPORTED_CONDITIONS: AlphaScreen; biotin-tagged human Kras loaded with GDP, His-tagged human SOS1; read-out: KRAS G12D-SOS PPI IC50
- Protocol: Protein-Protein Interaction Inhibition Between Kras and SOS1 (KrasGl2D-SOS PPI) Using AlphaScreen Protein-protein interaction inhibition (PPI) between Kras and SOS1 was measured by energy transfer from nickel-conjugated donor beads to streptavidin-conjugated acceptor beads using biotin-tagged human Kras expressed in E. coli and loaded with GDP after purification and His-tagged human SOS1 enzyme. […]
Positions of bridges follow the written chain, without caps; N, C: chain ends. Non-standard residues stand in square brackets, D forms with d. Residues, ends and D or L forms follow the SMILES beside them. *: point of attachment. hPhe(3-Cl-4-CF3) = N[C@@H](CCc1ccc(C(F)(F)F)c(Cl)c1)C(=O)O; NMePhe(4-Me) = CN[C@@H](Cc1ccc(C)cc1)C(=O)O; Abu(4,4,4-F3) = N[C@@H](CC(F)(F)F)C(=O)O; NMeGly(cPent) = CN[C@H](C(=O)O)C1CCCC1; NMe4Pal = CN[C@@H](Cc1ccncc1)C(=O)O; NMeCha = CN[C@@H](CC1CCCCC1)C(=O)O; Azetidine(3,3-F2) = FC1(F)CN(*)C1; NMeI = CC[C@H](C)[C@H](NC)C(=O)O; N(CH2CH2)2CF2 = FC1(F)CCN(*)CC1; NMeD = CN[C@@H](CC(=O)O)C(=O)O; NMeL = CN[C@@H](CC(C)C)C(=O)O; NMeV = CN[C@H](C(=O)O)C(C)C; NMeA = CN[C@@H](C)C(=O)O; Piperidide = C1CCN(*)CC1; Pyrrolidide = C1CCN(*)C1; Ac5c = NC1(C(=O)O)CCCC1; Aze = O=C(O)[C@@H]1CCN1; Sar = CNCC(=O)O
MEASURE: IC50 (nM)
Give bare numbers, in nM.

Examples from the recorded data:
CC[C@H](C)[C@@H]1NC(=O)[C@H](CC(C)C)N(C)C(=O)C[C@@H](C(=O)N(C)C)N(C)C(=O)[C@H]([C@@H](C)CC)N(C)C(=O)[C@H](C(C)C)NC(=O)[C@H](Cc2ccncc2)N(C)C(=O)[C@H](CCc2ccc(C(F)(F)F)c(Cl)c2)NC(=O)CN(C)C(=O)[C@H](Cc2ccc(C)cc2)N(C)C(=O)[C@@H]2CCN2C(=O)[C@H](C)N(C)C1=O [Compound 1897] ([NMeL]I[NMeA][Aze][NMePhe(4-Me)][Sar][hPhe(3-Cl-4-CF3)][NMe4Pal]V[NMeI][NMeD]-NMe2; lactam N-11) = 9.9
CC[C@H](C)[C@@H]1NC(=O)[C@H](CC(C)C)N(C)C(=O)C[C@@H](C(=O)N2CCCCC2)N(C)C(=O)[C@H](C2CCCC2)N(C)C(=O)C2(CCCC2)NC(=O)[C@@H]2CCCN2C(=O)[C@H](CCc2ccc(C(F)(F)F)c(Cl)c2)NC(=O)CN(C)C(=O)[C@H](CC2CCCCC2)N(C)C(=O)CN(C)C(=O)CN(C)C1=O [Compound 1073] ([NMeL]I[Sar][Sar][NMeCha][Sar][hPhe(3-Cl-4-CF3)]P[Ac5c][NMeGly(cPent)][NMeD]-Piperidide; lactam N-11) = 2.1
CC[C@H](C)[C@@H]1NC(=O)[C@H](C)N(C)C(=O)C[C@@H](C(=O)N2CCCCC2)N(C)C(=O)[C@H](C(C)C)N(C)C(=O)[C@H](CC(F)(F)F)NC(=O)[C@H](CC(=O)N2CC(F)(F)C2)N(C)C(=O)[C@H](CCc2ccc(C(F)(F)F)c(Cl)c2)NC(=O)CN(C)C(=O)[C@H](CC2CCCCC2)N(C)C(=O)CN(C)C(=O)CN(C)C1=O [Compound 679] ([NMeA]I[Sar][Sar][NMeCha][Sar][hPhe(3-Cl-4-CF3)][NMeD](Azetidine(3,3-F2))[Abu(4,4,4-F3)][NMeV][NMeD]-Piperidide; lactam N-11) = 37

Let's switch to this compound now.
*Q* Name the recorded IC50 for CC[C@H](C)[C@@H]1NC(=O)[C@H](CC(C)C)N(C)C(=O)C[C@@H](C(=O)N2CCCC2)N(C)C(=O)[C@H](C2CCCC2)N(C)C(=O)C2(CCCC2)NC(=O)[C@H](CC(=O)N2CCC(F)(F)CC2)N(C)C(=O)[C@H](CCc2ccc(C(F)(F)F)c(Cl)c2)NC(=O)CN(C)C(=O)[C@H](CC2CCCCC2)N(C)C(=O)[C@@H]2CCN2C(=O)[C@H](C)N(C)C1=O [Compound 26] ([NMeL]I[NMeA][Aze][NMeCha][Sar][hPhe(3-Cl-4-CF3)][NMeD](N(CH2CH2)2CF2)[Ac5c][NMeGly(cPent)][NMeD]-Pyrrolidide; lactam N-11) .
*A* 4.3
